Reported values of EC50 for individual entries
# procedure summary: Antiviral activity against 1 MOI BVDV NADL infected in MDBK cells assessed as reduction in viral titer after 22 hrs
# Format: functional, cell-based, Bovine viral diarrhea virus 1-NADL
# test context: Bovine viral diarrhea virus isolates and strains, MDBK, 22 h
Answer in nM, number only, no unit symbol.

Record excerpt, results attached:
[[record]]
molecule = "OC[C@@H]1[C@@H](O)[C@H](O)[C@@H](O)CN1CCCCCCOC1CCCCCC1"
measurement = 1400

[[record]]
molecule = "OC[C@@H]1[C@@H](O)[C@H](O)[C@@H](O)CN1CCCCCCOc1ccc(OC(F)(F)F)cc1"
measurement = 1300

[[record]]
molecule = "Cc1ccc(C(C)C)c(OCCCCCCN2C[C@H](O)[C@@H](O)[C@H](O)[C@H]2CO)c1"
measurement = 600

[[record]]
molecule = "OC[C@@H]1[C@@H](O)[C@H](O)[C@@H](O)CN1CCCc1ccc(OC2CCCCC2)cc1"
measurement = 5500

[[record]]
molecule = "CCCC(CCC)OCCCCCCN1C[C@H](O)[C@@H](O)[C@H](O)[C@H]1CO"
measurement = 600


Exercise: What does the data say about its EC50? Entry: CCC1CCCCC1OCCCCCCN1C[C@H](O)[C@@H](O)[C@H](O)[C@H]1CO (stereo partly drawn)
Key: 1500

Exercise: Follow-up entry: `Cc1ccc(C(C)(C)C)c(OCCCCCCN2C[C@H](O)[C@@H](O)[C@H](O)[C@H]2CO)c1`
Key: 600

Exercise: Follow-up entry: CC1CCC(OCCCCCCN2C[C@H](O)[C@@H](O)[C@H](O)[C@H]2CO)CC1C (stereo partly drawn)
Key: 3500

Exercise: Follow-up entry: `OC[C@@H]1[C@@H](O)[C@H](O)[C@@H](O)CN1CCCCCCOc1cccc(C(F)(F)F)c1`
Key: 1500

---

# procedure summary: Plasma protein binding in rat plasma
# Type: ADME, cell-free
# test context: read-out: PPB (converted)
measurement kind: fraction unbound
Note: the reply should be a number with no unit written.

[[record]]
smiles_text = "CCC(O)(CC)CCCCCCN1C[C@H](O)[C@@H](O)[C@H](O)[C@H]1CO"
measurement = 0.7

[[record]]
smiles_text = "OC[C@@H]1[C@@H](O)[C@H](O)[C@@H](O)CN1CCCCCCOCc1ccccc1"
measurement = 0.51


Exercise: What does the data say about its fraction unbound? Entry: `CCCOc1cccc(CCCN2C[C@H](O)[C@@H](O)[C@H](O)[C@H]2CO)c1`
Key: 0.43

Exercise: Follow-up entry: `OC[C@@H]1[C@@H](O)[C@H](O)[C@@H](O)CN1CCCCCCOC1CCCCCC1`
Key: 0.35

Exercise: Follow-up entry: `Cc1cccc(OCCCCCCN2C[C@H](O)[C@@H](O)[C@H](O)[C@H]2CO)c1`
Key: 0.21

Exercise: Follow-up entry: `COc1ccccc1OCCCCCCN1C[C@H](O)[C@@H](O)[C@H](O)[C@H]1CO`
Key: 0.3

Exercise: Follow-up entry: `CCCC(CCC)OCCCCCCN1C[C@H](O)[C@@H](O)[C@H](O)[C@H]1CO`
Key: 0.23

---

# procedure summary: Cytotoxicity against MDBK cells assessed as cell viability by MTT assay
# Assay type: cell-based, Bos taurus
# test context: cattle
measurement kind: CC50

Record excerpt, results attached:
[[record]]
compound = "CCC1CCC(OCCCCCCN2C[C@H](O)[C@@H](O)[C@H](O)[C@H]2CO)CC1 (stereo partly drawn)"
measurement_kind = "CC50"
measurement = "> 500 µM"

[[record]]
compound = "OC[C@@H]1[C@@H](O)[C@H](O)[C@@H](O)CN1CCCCCCOCc1ccccc1"
measurement_kind = "CC50"
measurement = "> 500 µM"


Attention now turns to another entry.
Exercise: What does the data say about its CC50? Entry: `OC[C@@H]1[C@@H](O)[C@H](O)[C@@H](O)CN1CCCCCCOc1ccccc1F`
Key: > 500 µM

src = ChEMBL document CHEMBL2163238
